assay: IOSE-T80 ovarian epithelial cell cytotoxicity, dose response, cytotoxicity control for PAX8 inhibitor project, plate reader, dry powder samples (AID 743045); conditions: IOSE-T80 ovarian epithelial cells; series mostly up to 35 µM;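 note: more negative values mean more cell killing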
Potency and affinity values are given separately. Activity calls are given as the source filed them. The rule behind the calls is not given here.
measuredMetric: activity change, negative = cytotoxicity

- structureSmiles: "C[C@@H]1CCCCO[C@@H](CN(C)Cc2ccc(C(F)(F)F)cc2)[C@H](C)CN([C@@H](C)CO)C(=O)c2cc(NS(=O)(=O)c3ccc(Cl)cc3)ccc2O1"
  result: "inactive"
- structureSmiles: "O=C(C[C@@H]1CC[C@@H]2[C@H](COC[C@@H](O)CN2C(=O)Nc2ccc(Cl)c(Cl)c2)O1)NCc1ccc(Cl)cc1"
  result: "inactive"
- structureSmiles: "C[C@@H]1CCCCO[C@@H](CN(C)Cc2ccc(Cl)c(Cl)c2)[C@@H](C)CN([C@@H](C)CO)C(=O)c2cc(NC(=O)Nc3ccccc3)ccc2O1"
  result: "inactive"
